test system: RS4-11; assay: Antiproliferative activity against human RS4-11 cells assessed as cell growth inhibition incubated for 72 hrs by resazurin dye based analysis; assay type: functional
PROPERTY_MEASURED: GI50 (µM)
Just the number please, in µM, no unit attached.

Value of GI50 reported for the molecule `CCOC(=O)CN1C(=O)S/C(=C(/C)c2ccc(O)c(O)c2)C1=O` is 7.25

Value of GI50 reported for the molecule CCOC(=O)C(C)N1C(=O)/C(=C/c2ccc(O)c(O)c2)N(C)C1=O (centres undefined) is 17.8

Value of GI50 reported for the molecule CCOC(=O)C(C)N1C(=O)S/C(=C\c2ccc3c(c2)NC(=O)CO3)C1=O (racemic) is 28.1

Value of GI50 reported for the molecule CCOC(=O)C(C)N1C(=O)S/C(=C\c2ccc(NS(C)(=O)=O)cc2)C1=O (racemic) is 50.3

Value of GI50 reported for the molecule CC(C(=O)N1CCOCC1)N1C(=O)S/C(=C\c2cccc(O)c2O)C1=O (racemic) is 6.7

Value of GI50 reported for the molecule CCNC(=O)C(C)N1C(=O)S/C(=C\c2ccc(O)c(O)c2)C1=O (racemic) is 24.8

Value of GI50 reported for the molecule CCOC(=O)C(C)N1C(=O)S/C(=C\c2ccc3cn[nH]c3c2)C1=O (racemic) is 17.8

###

tested on: HD-MB03; experiment: Antiproliferative activity against human HD-MB03 cells assessed as cell growth inhibition incubated for 72 hrs by resazurin dye based analysis; assay type: functional
Doc: threshold 30 µM (exclusive). Items with GI50 beneath it return yes; others return no.

q: Answer whether the compound `O=C(CN1C(=O)S/C(=C\c2ccc(O)c(O)c2)C1=O)N1CCOCC1` has GI50 strictly less than 30 µM
a: no

q: Answer whether the compound CCNC(=O)C(C)N1C(=O)S/C(=C\c2ccc(O)c(O)c2)C1=O (racemic) has GI50 strictly less than 30 µM
a: no

q: Answer whether the compound `CS(=O)(=O)Nc1ccc(/C=C2\SC(=O)N(CC(=O)N3CCOCC3)C2=O)cc1` has GI50 strictly less than 30 µM
a: no

q: Answer whether the compound CCOC(=O)C(C)N1C(=O)S/C(=C\c2ccc(O)c(O)c2)C1=O (racemic) has GI50 strictly less than 30 µM
a: yes

q: Answer whether the compound `CCOC(=O)CN1C(=O)S/C(=C\c2ccc(F)cc2)C1=O` has GI50 strictly less than 30 µM
a: no

q: Answer whether the compound `CCOC(=O)CN1C(=O)S/C(=C\c2ccc(OC)c(OC)c2)C1=O` has GI50 strictly less than 30 µM
a: no

q: Answer whether the compound CC(C(=O)N1CCC2(CC1)OCCO2)N1C(=O)S/C(=C\c2ccc(O)c(O)c2)C1=O (racemic) has GI50 strictly less than 30 µM
a: no

q: Answer whether the compound CCOC(=O)C(C)N1C(=O)S/C(=C\c2ccc3cn[nH]c3c2)C1=O (racemic) has GI50 strictly less than 30 µM
a: yes

q: Answer whether the compound CCOC(=O)C(C)N1C(=O)S/C(=C\c2ccc3[nH]cnc3c2)C1=O (racemic) has GI50 strictly less than 30 µM
a: no

q: Answer whether the compound CCOC(=O)C(c1ccccc1)N1C(=O)S/C(=C\c2ccc(O)c(O)c2)C1=O (racemic) has GI50 strictly less than 30 µM
a: yes

q: Answer whether the compound `CCOC(=O)CN1C(=O)S/C(=C\c2cccc(O)c2)C1=O` has GI50 strictly less than 30 µM
a: no

q: Answer whether the compound CCOC(=O)C(C)N1C(=O)S/C(=C\c2ccc(NS(C)(=O)=O)cc2)C1=O (racemic) has GI50 strictly less than 30 µM
a: yes

q: Answer whether the compound CCOC(=O)C(C)N1C(=O)S/C(=C\c2ccc(Cl)c(O)c2)C1=O (racemic) has GI50 strictly less than 30 µM
a: yes

q: Answer whether the compound `CCOC(=O)Cc1csc(Oc2ccc(O)cc2)n1` has GI50 strictly less than 30 µM
a: no

q: Answer whether the compound `CCOC(=O)CN1C(=O)S/C(=C\c2ccc(O)c(O)c2)C1=O` has GI50 strictly less than 30 µM
a: yes

q: Answer whether the compound CCOC(=O)C(C)N1C(=O)S/C(=C\c2cc(Cl)c(O)c(Cl)c2)C1=O (racemic) has GI50 strictly less than 30 µM
a: no

q: Answer whether the compound `CCOC(=O)CN1C(=O)S/C(=C(/C)c2ccc(O)c(O)c2)C1=O` has GI50 strictly less than 30 µM
a: yes

q: Answer whether the compound CCOC(=O)C(C)N1C(=O)S/C(=C\c2ccc(F)c(O)c2)C1=O (racemic) has GI50 strictly less than 30 µM
a: no

q: Answer whether the compound `O=C(CN1C(=O)S/C(=C\c2cc(Cl)c(O)c(Cl)c2)C1=O)N1CCOCC1` has GI50 strictly less than 30 µM
a: no

q: Answer whether the compound CCOC(=O)C(C1CC1)N1C(=O)S/C(=C\c2ccc(O)c(O)c2)C1=O (racemic) has GI50 strictly less than 30 µM
a: yes

q: Answer whether the compound CC(C(=O)N1CCCCC1)N1C(=O)S/C(=C\c2ccc(O)c(O)c2)C1=O (racemic) has GI50 strictly less than 30 µM
a: yes

q: Answer whether the compound CCOC(=O)CN1C(=O)SC(Cc2ccc(O)c(O)c2)C1=O (stereo not given) has GI50 strictly less than 30 µM
a: no

q: Answer whether the compound CCOC(=O)C(C)N1C(=O)/C(=C/c2ccc(O)c(O)c2)N(C)C1=O (stereo not given) has GI50 strictly less than 30 µM
a: no

q: Answer whether the compound CC(C(=O)N1CC2(COC2)C1)N1C(=O)S/C(=C\c2ccc(O)c(O)c2)C1=O (racemic) has GI50 strictly less than 30 µM
a: no

q: Answer whether the compound `CCOCCN1C(=O)S/C(=C\c2ccc(O)c(O)c2)C1=O` has GI50 strictly less than 30 µM
a: yes

q: Answer whether the compound `CCOC(=O)CN1C(=O)S/C(=C\c2ccc(OC)nc2)C1=O` has GI50 strictly less than 30 µM
a: no

q: Answer whether the compound `CCOC(=O)CN1C(=O)S/C(=C\c2ccc3c(c2)OCCO3)C1=O` has GI50 strictly less than 30 µM
a: no

q: Answer whether the compound `CN(C)C(=O)CN1C(=O)S/C(=C\c2ccc(O)c(O)c2)C1=O` has GI50 strictly less than 30 µM
a: no

q: Answer whether the compound `CCOC(=O)CN1C(=O)S/C(=C\c2ccc(Cl)c(Cl)c2)C1=O` has GI50 strictly less than 30 µM
a: no

q: Answer whether the compound `CCOC(=O)CN1C(=O)S/C(=C\c2ccc(O)c(F)c2)C1=O` has GI50 strictly less than 30 µM
a: no

q: Answer whether the compound CCOC(=O)C(C)N1C(=O)S/C(=C\c2ccc(O)c(Cl)c2)C1=O (racemic) has GI50 strictly less than 30 µM
a: yes

q: Answer whether the compound CC(C(=O)N1CCOCC1)N1C(=O)S/C(=C\c2ccc(N3CCCC3)cc2)C1=O (racemic) has GI50 strictly less than 30 µM
a: yes

q: Answer whether the compound CC(C(=O)N1CCOCC1)N1C(=O)S/C(=C\c2cccc(O)c2O)C1=O (racemic) has GI50 strictly less than 30 µM
a: yes

q: Answer whether the compound CCOC(=O)C(C)N1C(=O)S/C(=C\c2ccc3c(c2)NC(=O)CO3)C1=O (racemic) has GI50 strictly less than 30 µM
a: no

q: Answer whether the compound CCOC(=O)C(CC)N1C(=O)S/C(=C\c2ccc(O)c(O)c2)C1=O (racemic) has GI50 strictly less than 30 µM
a: yes

q: Answer whether the compound CC(C(=O)N1CCOCC1)N1C(=O)S/C(=C\c2ccc(O)c(O)c2)C1=O (racemic) has GI50 strictly less than 30 µM
a: no

q: Answer whether the compound O=C1OCCC1N1C(=O)S/C(=C\c2ccc(O)c(O)c2)C1=O (stereo not given) has GI50 strictly less than 30 µM
a: yes

q: Answer whether the compound CCOC(=O)C(C)N1C(=O)N/C(=C\c2ccc(O)c(O)c2)C1=O (racemic) has GI50 strictly less than 30 µM
a: yes

q: Answer whether the compound `O=C(O)CN1C(=O)S/C(=C\c2ccc(O)c(O)c2)C1=O` has GI50 strictly less than 30 µM
a: no

###

Assignment: determine reported GI50 for the given compounds.
test system: RS4-11; test: Antiproliferative activity against human RS4-11 cells assessed as cell growth inhibition incubated for 72 hrs by resazurin dye based analysis; format: functional
Just the number please, in µM, no unit attached.

Value of GI50 reported for the compound CC(C(=O)N1CCOCC1)N1C(=O)S/C(=C\c2ccc(N3CCCC3)cc2)C1=O (racemic) is 5.2

Value of GI50 reported for the compound `CN(C)C(=O)CN1C(=O)S/C(=C\c2ccc(O)c(O)c2)C1=O` is 25.6

Value of GI50 reported for the compound CC(C(=O)N1CCOCC1)N1C(=O)S/C(=C\c2ccc(O)c(O)c2)C1=O (racemic) is 14.1

Value of GI50 reported for the compound CCOC(=O)C(C)N1C(=O)S/C(=C\c2cc(Cl)c(O)c(Cl)c2)C1=O (racemic) is 47.2
